- protocolSummary: Stability of QC samples in rat brain homogenate (freeze-thaw, room temperature)
- Format: physicochemical
- studyConditions: rat brain QC 160 ng/mL, room temperature 24 h, percentage remaining, n = 5
The compounds listed here are annotated with their Stability room temperature.
State the answer as a number, implicitly in %.

[[record]]
compound = "CC(C)=CCOc1c2ccoc2cc2oc(=O)ccc12"
outcomemeasure = "Stability room temperature"
measvalue = 86.85

[[record]]
compound = "CC(C)(O)[C@H](O)COc1c2ccoc2cc2oc(=O)ccc12 [Compound 8, oxypeucedanin hydrate]"
outcomemeasure = "Stability room temperature"
measvalue = 97.99


Input line: Entry COc1ccc2ccc(=O)oc2c1CC=C(C)C : reported Stability room temperature = ?
Output line: 96.43

Input line: Ok, now C/C=C(/C)C(=O)OC(C)(C)[C@@H]1Cc2c(ccc3ccc(=O)oc23)O1
Output line: 91.16

Input line: Ok, now O=c1ccc2cc3ccoc3cc2o1
Output line: 96.99

Input line: Ok, now CC=C(C)C(=O)OC(C(O)c1cc2ccc(=O)oc2cc1OC)C(C)(C)O (stereo not shown)
Output line: 96.20

Input line: Ok, now COc1c2ccoc2cc2oc(=O)ccc12
Output line: 86.84
